Task for the reader: assign each of the following molecules its reported growth.
- Tested on: OVCAR-3 ovarian
- EXPERIMENT SUMMARY: NCI-60 one-dose screen, 48 h (100 = growth as untreated, 0 = no growth, -100 = all killed)
- EXPERIMENTAL CONDITIONS: 10 µM unless noted
This is part of a sample that, as a whole, favours compounds with a hit. Of some 83,000 tested, about 20% had one in any assay.
Give bare numbers, in %.

Worked cases, answers included:
| MOLECULE | ASSAY METRIC | ASSAY VALUE |
| --- | --- | --- |
| NCCOc1ncccc1/C=C1\c2ccccc2-c2ccc(C(F)F)cc21 | growth | 76.2 |
| COc1ccc(C(=O)/C=C/c2sc(Cl)nc2Cl)cc1 | growth | -3.81 |
| COc1cc(CCCO)c(OC)c(OC)c1OC | growth | 111 |

Could you report growth for every entry in the following list?
1. C=CCc1cc(C)ccc1NC(C(=O)NCC(=O)OC)c1ccccc1 (configuration not stated)
2. NCCCNc1nc2ccccc2c2c(=O)c3cc(F)cc(Cl)c3sc12
3. Cc1nc2ccccc2n1-c1ncnc2c1CC(C)c1ccccc1N2C (configuration not stated)
4. CN1CCN(c2ccc(-c3cnc4c(-c5csc6ccccc56)cnn4c3)cc2)CC1

RESULT:
105
102
94.6
-68.6

Could you report growth for every entry in the following list?
1. COc1ccc(C(Cc2ccccc2)NCCN2CCOCC2)cc1 (configuration not stated)
2. O=C(O)CCC(=O)Nc1nnc(-c2ccccc2)s1
3. CCOc1c(B(O)O)cccc1-c1nc2ccc3[nH]ncc3c2c2c1CCCC2

RESULT:
1. 100
2. 101
3. 113

Could you report growth for every entry in the following list?
1. CCCCC1CCCC12NC(=O)NC2=O (configuration not stated)
2. C(=N/Nc1ncnc2nc[nH]c12)/c1ccccn1

RESULT:
1: 92.8; 2: 51
